- Test system: cyclooxygenase (TxB2)
- procedure-summary: In vitro heparinised human blood assay, A23187 challenge, TxB2 radioimmunoassay, test b)
- Format: cell-based
pIC50: −log10 of the molar value.
readout: pIC50

// query Given the compound CCC1(c2cccc(OCc3ccc4ccccc4c3)c2)COC(C)(C)O1 (stereo not shown) , what is its reported pIC50?
// result < 4.40

====

- Test system: 5-LO (LTB4)
- procedure-summary: In vitro heparinised human blood assay, A23187 challenge, LTB4 radioimmunoassay, test b)
- Type: cell-based
readout: IC50 (nM)
Return type: number; implicit unit nM.

// query Item CCC1(c2cccc(OCc3ccc4ccccc4c3)c2)COC(C)(C)O1 (stereo not shown) has what recorded IC50?
// result 100
